# studySystem: DCAF1 WD40 domain (residues 1077-1390) (Homo sapiens, UniProt Q9Y4B6)
# Construct: DCAF1 WD40 domain (residues 1077-1390)
# Sequence (Q9Y4B6 1077-1390): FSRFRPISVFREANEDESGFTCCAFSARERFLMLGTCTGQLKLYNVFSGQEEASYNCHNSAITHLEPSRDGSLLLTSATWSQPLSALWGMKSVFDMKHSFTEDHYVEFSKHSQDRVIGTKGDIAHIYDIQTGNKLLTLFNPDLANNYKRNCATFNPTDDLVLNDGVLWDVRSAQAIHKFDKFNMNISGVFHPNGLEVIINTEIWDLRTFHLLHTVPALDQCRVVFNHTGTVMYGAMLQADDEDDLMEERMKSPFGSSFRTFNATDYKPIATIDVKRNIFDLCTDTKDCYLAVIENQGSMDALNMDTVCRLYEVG
# assayNotes: DCAF1 binding assay by SPR (Biacore 8K+), DCAF1-3 KD
# particulars: 25 °C, read-out: DCAF1-3 SPR (KD)
quantityKind: Kd

Observe how each entry below is paired with its result.
compound	Kd
Fc1cccc(N2CCCC(Nc3cc(N4CCOCC4)ccn3)C23CC(F)(F)C3)c1 (centres unmarked)	> 200 µM
NC(=O)C[C@H](NC(=O)CNC1=Nc2ccccc2CC1)c1cccc(Cl)c1	> 200 µM
Cc1sc2c(c1C)C(c1ccc(Cl)cc1)=N[C@@H](CC(=O)NCCOCCOCCOCCCc1ccc(C(=O)c3[nH]cc(C(=O)N[C@@H](CC(N)=O)c4cccc(Cl)c4)c3-c3c(F)ccc(F)c3C)cc1)c1nnc(C)n1-2	< 10 µM

# input May I ask what Kd has been recorded for `COc1ccc(N2CCC[C@@H](Nc3cc(N4CCOCC4)ncn3)C2)cc1` ?
# output > 200 µM

# input # lookup: Kd of `NC(=O)CCc1cccc(N2CCC[C@@H]3[C@H]2CCN3c2cc(N3CCCCC3)ccn2)c1`
# output 10 to 100 µM

* * *

# studySystem: DCAF1 WD40 domain (residues 1077-1390) (Homo sapiens)
# Construct: DCAF1 WD40 domain (residues 1077-1390)
# assayNotes: DCAF1 binding assay by SPR (Biacore 8K+), DCAF1-3 KD
# particulars: 25 °C, read-out: DCAF1-3 SPR (KD)
pKd: −log10 of the molar value.
Catalogue of pKd readings, one per entry.

The following compounds have reported results that may help.
>>> df
                                   compound        result
0  NC(=O)C[C@H](NC(=O)c1n[nH]cc1-c1ccccc1F)c1cccc(Cl)c1 [I-100]  4.00 to 5.00
1  c1csc(-c2ccc(N3CCC[C@@H](Nc4cc(N5CCOCC5)ccn4)C3)cc2)c1 [I-695]  4.00 to 5.00

# input Which value of pKd has been reported for Fc1cccc(N2CCC[C@H](Nc3cc(N4CCOCC4)ncn3)C2)c1 [I-313] in the records?
# output < 3.70

* * *

# studySystem: DCAF1 WD40 domain (residues 1077-1390) (Homo sapiens)
# Construct: DCAF1 WD40 domain (residues 1077-1390)
# assayNotes: DCAF1 binding assay by SPR (Biacore 8K+), DCAF1-3 KD
# particulars: 25 °C, read-out: DCAF1-3 SPR (KD)
pKd: −log10 of the molar value.
quantityKind: pKd

A selection of reference data follows.
>>> df
                                   molecule  quantitykind        result
0  Cc1cccc(F)c1-c1c[nH]cc1C(=O)N[C@@H](CC(N)=O)c1cccc(Cl)c1           pKd        > 5.00
1  Oc1c(CN2CCCCC2)cccc1[C@@H]1CCCN(c2cccc(F)c2)C1           pKd        < 3.70
2  N#Cc1ccc(-c2[nH]ncc2C(=O)N[C@@H](CC(N)=O)c2cccc(Cl)c2)cc1           pKd  4.00 to 5.00
3  c1cc(N2CCCCC2)cc(N[C@@H]2CCC[C@@H](C3CCCCC3)C2)n1           pKd  4.00 to 5.00
4  CS(=O)(=O)CCCC(=O)N1CCC[C@@H](Nc2cc(N3CCOCC3)ccn2)C1           pKd        < 3.70

# input May I ask what pKd has been recorded for `CC(C)Cn1cc(N2CCC[C@@H](Nc3cc(N4CCOCC4)ccn3)C2)cn1` ?
# output < 3.70

# input // returns reported pKd for input Fc1cccc(N2CCC[C@@H](Nc3cc(N4CC5CCCC5C4)ccn3)C2)c1 (some centres unmarked)
# output > 5.00

# input Requested read-out: pKd. Entry: `NS(=O)(=O)CCc1cccc(N2CCC[C@H]3[C@@H]2CCN3c2cc(N3CCCCC3)ccn2)c1`
# output > 5.00

# input Recorded pKd of `NC(=O)C[C@H](NC(=O)c1cn(CC2CC2)nc1-c1ccccc1F)c1cccc(Cl)c1` , please.
# output 4.00 to 5.00

# input # pKd lookup, item `c1cn(Cc2ccc(N3CCC[C@@H](Nc4cc(N5CCOCC5)ccn4)C3)cc2)cn1`
# output 3.70 to 4.00

# input Entry under review: `Fc1cccc(N2CCC[C@@H](N(Cc3ccccc3)c3cc(N4CCOCC4)ncn3)C2)c1` . Reported pKd?
# output < 3.70
